molecular target: Peptidyl-prolyl cis-trans isomerase FKBP4 (Homo sapiens); assay: Neurotrophic activity in chick dorsal root ganglion at 100 pM in presence of NGF after 48 hrs relative to control; type: functional, tissue-based; conditions: Gallus gallus, target entry is the homologue from another species
Catalogue of Activity values
Report the figure in % without appending any unit label.

# annotated cases, reported Activity shown
[[record]]
smiles_notation = "CC(C)[C@H](NC(=O)C(=O)C(C)(C)C)C(=O)OCCCc1ccccc1"
experimental_system = "Peptidyl-prolyl cis-trans isomerase FKBP4 (Homo sapiens)"
unit_spec = "%"
measurement = 78

[[record]]
smiles_notation = "CC(C)C[C@H](NC(=O)C(=O)C(C)(C)C)C(=O)OCCCOc1ccccc1"
experimental_system = "Peptidyl-prolyl cis-trans isomerase FKBP4 (Homo sapiens)"
unit_spec = "%"
measurement = 93

[[record]]
smiles_notation = "CCC(C)(C)C(=O)C(=O)N[C@H](C(=O)OCCc1ccccc1C(F)(F)F)C(C)C"
experimental_system = "Peptidyl-prolyl cis-trans isomerase FKBP4 (Homo sapiens)"
unit_spec = "%"
measurement = 207

[[record]]
smiles_notation = "CCC(C)(C)C(=O)C(=O)N[C@H](C(=O)OCCCc1ccccc1)C(C)C"
experimental_system = "Peptidyl-prolyl cis-trans isomerase FKBP4 (Homo sapiens)"
unit_spec = "%"
measurement = 117


Asked: Data request, read-out Activity, for CC(C)[C@H](NC(=O)C(=O)C(C)(C)C)C(=O)OCCCc1cccnc1
Given back: 136

Asked: Any idea what Activity was measured for CC(C)[C@H](NC(=O)C(=O)C(C)(C)C)C(=O)OCCCC1CCCCC1 ?
Given back: 45

Asked: Look up Activity for this compound: CCC(C)(C)C(=O)C(=O)N[C@H](C(=O)OCCCc1cccnc1)C(C)C
Given back: 120

Asked: Tell me the measured Activity of CC(C)C[C@H](NC(=O)C(=O)C(C)(C)C)C(=O)OCCCc1ccccc1 , please.
Given back: 92

Asked: Please look up its Activity: CCC(C)(C)C(=O)C(=O)N1CCC[C@H]1C(=O)OCCCc1cccnc1
Given back: 120

Asked: // returns reported Activity for input CC(C)C[C@H](NC(=O)C(=O)C(C)(C)C)C(=O)OCCCC1CCCCC1
Given back: 101

Asked: Dear colleague, I am looking for the recorded Activity of the following compound: CC(C)C[C@H](NC(=O)C(=O)C(C)(C)C)C(=O)OCCCc1cccnc1
Given back: 65

Asked: What measured Activity goes with CC(C)[C@H](NC(=O)C(=O)C(C)(C)C)C(=O)OCCCOc1ccccc1 ?
Given back: 93
